The origin of these recorded values is ChEMBL document CHEMBL1148923.

# System: Trypanosoma cruzi
# assay.overview: Antitrypanosomal activity against intracellular Trypanosoma cruzi Tulahuen clone C4 assessed as cleavage of […]
# Assay type: functional, organism-based
measure.name: IC50 (µM)
Provide only the numeric value, understood in µM.

{"compound": "CC(=O)OC[C@]1(C)CCC[C@]2(C)[C@H]3CCC(C=O)=C(C)[C@@H]3CC(=O)[C@@H]12", "system.under.test": "Trypanosoma cruzi", "IC50 / µM": 61.4}
{"compound": "C=CC1=C(C)[C@@H]2C[C@@H](O)[C@H]3[C@](C)(CO)CCC[C@]3(C)[C@H]2CC1", "system.under.test": "Trypanosoma cruzi", "IC50 / µM": 16}

// moving on: another record for IC50
Please state recorded IC50 (tested on Trypanosoma cruzi) of C=CC1=C(C)[C@@H]2C[C@@H](OC(C)=O)[C@H]3[C@](C)(CO)CCC[C@]3(C)[C@H]2CC1 76.5
